- Test system: Staphylococcus aureus
- assay-notes: Antibacterial activity against methicillin-resistant Staphylococcus aureus ATCC 33592 after 24 hrs by macrobroth dilution method
- Assay type: functional
- conditions: ATCC 33592, 24 h
quantity-kind: MIC

# lookup: MIC of CCCCCC(=O)NC[C@H]1O[C@@H](O[C@@H]2[C@@H](O)[C@H](N)C[C@H](N)[C@H]2O[C@H]2O[C@H](CN)[C@@H](O)[C@H](O)[C@H]2N)[C@H](O)[C@@H]1O[C@H]1O[C@@H](CN)[C@@H](O)[C@H](O)[C@H]1N
> 512 µg/mL

# lookup: MIC of CCCCCCCCCCCC(=O)O [DODECANOATE]
400 µg/mL

# lookup: MIC of C[C@@H](CCC(=O)NC[C@H]1O[C@@H](O[C@@H]2[C@@H](O)[C@H](N)C[C@H](N)[C@H]2O[C@H]2O[C@H](CN)[C@@H](O)[C@H](O)[C@H]2N)[C@H](O)[C@@H]1O[C@H]1O[C@@H](CN)[C@@H](O)[C@H](O)[C@H]1N)[C@@H]1CC[C@H]2[C@@H]3[C@@H](O)C[C@H]4C[C@@H](O)CC[C@@]4(C)[C@H]3C[C@@H](O)[C@]21C (stereo in doubt)
128 µg/mL

# lookup: MIC of NC[C@@H]1O[C@H](O[C@H]2[C@@H](O)[C@H](O[C@@H]3[C@@H](O)[C@H](N)C[C@H](N)[C@H]3O[C@H]3O[C@H](CN)[C@@H](O)[C@H](O)[C@H]3N)O[C@@H]2CNC(=O)CCCc2ccc3ccc4cccc5ccc2c3c45)[C@H](N)[C@@H](O)[C@@H]1O
256 µg/mL

# lookup: MIC of NC[C@@H]1O[C@H](O[C@H]2[C@@H](O)[C@H](O[C@@H]3[C@@H](O)[C@H](N)C[C@H](N)[C@H]3O[C@H]3O[C@H](CN)[C@@H](O)[C@H](O)[C@H]3N)O[C@@H]2CO)[C@H](N)[C@@H](O)[C@@H]1O
256 µg/mL

# lookup: MIC of CCCCCCCCCCCCCCCCCCCC(=O)NC[C@H]1O[C@@H](O[C@@H]2[C@@H](O)[C@H](N)C[C@H](N)[C@H]2O[C@H]2O[C@H](CN)[C@@H](O)[C@H](O)[C@H]2N)[C@H](O)[C@@H]1O[C@H]1O[C@@H](CN)[C@@H](O)[C@H](O)[C@H]1N
8 µg/mL

# lookup: MIC of CCCCCCCCCCCC(=O)NC[C@H]1O[C@@H](O[C@@H]2[C@@H](O)[C@H](N)C[C@H](N)[C@H]2O[C@H]2O[C@H](CN)[C@@H](O)[C@H](O)[C@H]2N)[C@H](O)[C@@H]1O[C@H]1O[C@@H](CN)[C@@H](O)[C@H](O)[C@H]1N
> 512 µg/mL

# lookup: MIC of CCCCCCCCCCCCCCCC(=O)NC[C@H]1O[C@@H](O[C@@H]2[C@@H](O)[C@H](N)C[C@H](N)[C@H]2O[C@H]2O[C@H](CN)[C@@H](O)[C@H](O)[C@H]2N)[C@H](O)[C@@H]1O[C@H]1O[C@@H](CN)[C@@H](O)[C@H](O)[C@H]1N
8 µg/mL

----------
- Tested on: Staphylococcus aureus
- assay-notes: Antibacterial activity against Staphylococcus aureus ATCC 29213 after 24 hrs by macrobroth dilution method
- Type: functional
- conditions: ATCC 29213, 24 h
So I've got a bunch of compounds here, and I need their MIC values.

Param readout= MIC; system= Staphylococcus aureus; entry= C[C@@H](CCC(=O)NC[C@H]1O[C@@H](O[C@@H]2[C@@H](O)[C@H](N)C[C@H](N)[C@H]2O[C@H]2O[C@H](CN)[C@@H](O)[C@H](O)[C@H]2N)[C@H](O)[C@@H]1O[C@H]1O[C@@H](CN)[C@@H](O)[C@H](O)[C@H]1N)[C@@H]1CC[C@H]2[C@@H]3[C@@H](O)C[C@H]4C[C@@H](O)CC[C@@]4(C)[C@H]3C[C@@H](O)[C@]21C (stereo in doubt) ; returns value.
16 µg/mL

Param readout= MIC; system= Staphylococcus aureus; entry= CCCCCCCCCCCCCCCC(=O)NC[C@H]1O[C@@H](O[C@@H]2[C@@H](O)[C@H](N)C[C@H](N)[C@H]2O[C@H]2O[C@H](CN)[C@@H](O)[C@H](O)[C@H]2N)[C@H](O)[C@@H]1O[C@H]1O[C@@H](CN)[C@@H](O)[C@H](O)[C@H]1N ; returns value.
4 µg/mL

Param readout= MIC; system= Staphylococcus aureus; entry= NC[C@@H]1O[C@H](O[C@H]2[C@@H](O)[C@H](O[C@@H]3[C@@H](O)[C@H](N)C[C@H](N)[C@H]3O[C@H]3O[C@H](CN)[C@@H](O)[C@H](O)[C@H]3N)O[C@@H]2CNC(=O)CCCc2ccc3ccc4cccc5ccc2c3c45)[C@H](N)[C@@H](O)[C@@H]1O ; returns value.
16 µg/mL

Param readout= MIC; system= Staphylococcus aureus; entry= NC[C@@H]1O[C@H](O[C@H]2[C@@H](O)[C@H](O[C@@H]3[C@@H](O)[C@H](N)C[C@H](N)[C@H]3O[C@H]3O[C@H](CN)[C@@H](O)[C@H](O)[C@H]3N)O[C@@H]2CO)[C@H](N)[C@@H](O)[C@@H]1O ; returns value.
2 µg/mL

Param readout= MIC; system= Staphylococcus aureus; entry= CCCCCC(=O)NC[C@H]1O[C@@H](O[C@@H]2[C@@H](O)[C@H](N)C[C@H](N)[C@H]2O[C@H]2O[C@H](CN)[C@@H](O)[C@H](O)[C@H]2N)[C@H](O)[C@@H]1O[C@H]1O[C@@H](CN)[C@@H](O)[C@H](O)[C@H]1N ; returns value.
16 µg/mL

----------
- Tested on: Escherichia coli
- assay-notes: Antibacterial activity against Escherichia coli ATCC 25922 after 24 hrs by macrobroth dilution method
- Assay type: functional
- conditions: ATCC 25922, 24 h
So I've got a bunch of compounds here, and I need their MIC values.

Param readout= MIC; system= Escherichia coli; entry= CCCCCC(=O)NC[C@H]1O[C@@H](O[C@@H]2[C@@H](O)[C@H](N)C[C@H](N)[C@H]2O[C@H]2O[C@H](CN)[C@@H](O)[C@H](O)[C@H]2N)[C@H](O)[C@@H]1O[C@H]1O[C@@H](CN)[C@@H](O)[C@H](O)[C@H]1N ; returns value.
16 mg/L

Param readout= MIC; system= Escherichia coli; entry= NC[C@@H]1O[C@H](O[C@H]2[C@@H](O)[C@H](O[C@@H]3[C@@H](O)[C@H](N)C[C@H](N)[C@H]3O[C@H]3O[C@H](CN)[C@@H](O)[C@H](O)[C@H]3N)O[C@@H]2CNC(=O)CCCc2ccc3ccc4cccc5ccc2c3c45)[C@H](N)[C@@H](O)[C@@H]1O ; returns value.
32 mg/L

Param readout= MIC; system= Escherichia coli; entry= CCCCCCCCCCCC(=O)NC[C@H]1O[C@@H](O[C@@H]2[C@@H](O)[C@H](N)C[C@H](N)[C@H]2O[C@H]2O[C@H](CN)[C@@H](O)[C@H](O)[C@H]2N)[C@H](O)[C@@H]1O[C@H]1O[C@@H](CN)[C@@H](O)[C@H](O)[C@H]1N ; returns value.
64 mg/L

Param readout= MIC; system= Escherichia coli; entry= CCCCCCCCCCCCCCCCCCCC(=O)NC[C@H]1O[C@@H](O[C@@H]2[C@@H](O)[C@H](N)C[C@H](N)[C@H]2O[C@H]2O[C@H](CN)[C@@H](O)[C@H](O)[C@H]2N)[C@H](O)[C@@H]1O[C@H]1O[C@@H](CN)[C@@H](O)[C@H](O)[C@H]1N ; returns value.
128 mg/L

Param readout= MIC; system= Escherichia coli; entry= CCCCCCCCCCCCCCCC(=O)NC[C@H]1O[C@@H](O[C@@H]2[C@@H](O)[C@H](N)C[C@H](N)[C@H]2O[C@H]2O[C@H](CN)[C@@H](O)[C@H](O)[C@H]2N)[C@H](O)[C@@H]1O[C@H]1O[C@@H](CN)[C@@H](O)[C@H](O)[C@H]1N ; returns value.
32 mg/L

Param readout= MIC; system= Escherichia coli; entry= C[C@@H](CCC(=O)NC[C@H]1O[C@@H](O[C@@H]2[C@@H](O)[C@H](N)C[C@H](N)[C@H]2O[C@H]2O[C@H](CN)[C@@H](O)[C@H](O)[C@H]2N)[C@H](O)[C@@H]1O[C@H]1O[C@@H](CN)[C@@H](O)[C@H](O)[C@H]1N)[C@@H]1CC[C@H]2[C@@H]3[C@@H](O)C[C@H]4C[C@@H](O)CC[C@@]4(C)[C@H]3C[C@@H](O)[C@]21C (stereo in doubt) ; returns value.
32 mg/L

Param readout= MIC; system= Escherichia coli; entry= NC[C@@H]1O[C@H](O[C@H]2[C@@H](O)[C@H](O[C@@H]3[C@@H](O)[C@H](N)C[C@H](N)[C@H]3O[C@H]3O[C@H](CN)[C@@H](O)[C@H](O)[C@H]3N)O[C@@H]2CO)[C@H](N)[C@@H](O)[C@@H]1O [FRAMYCETIN] ; returns value.
8 mg/L
